- experiment description: NCI Yeast Anticancer Drug Screen. Data for the sgs1 mgt1 strain (AID 161);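 also: 0% = growth of cultures given vehicle only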
- details: S. cerevisiae sgs1 mgt1 strain, at 50.0 µM (retest, dose inferred, filed as 5.0)
- Procedure: Growth inhibition of yeast strains with defined genetic alterations is measured as a screen for potential anti-cancer activity. Selected strains with alterations in DNA damage repair or cell cycle control were exposed to compounds and growth inhibition was measured relative to vehicle treated controls. The strain used in this assay is sgs1 mgt1
Compounds without any hit were thinned out: in the full panel of roughly 79,000, 15% have a hit. Calls of active or inactive are those of the source. Rule as the data show it: active = growth inhibition above about 70%; inactive = the rest.
Outcomes: T (active), F (inactive)

- compound: "Clc1ccc(SC(/C=C/NNC2=NC(c3ccccc3)C(c3ccccc3)=NN2)c2ccccc2)cc1 (stereo unspecified)"
  classification: "F"
- compound: "O=[N+]([O-])C(=C(Sc1ccccc1)Sc1ccccc1)C(Cl)=C(Cl)Cl"
  classification: "F"
- compound: "CC(C)(C)c1nc2c(o1)C(=O)c1ccccc1C2=O"
  classification: "T"
- compound: "NNC(=O)CCc1ccc2ccc3ccccc3c2c1"
  classification: "F"
- compound: "O=[N+]([O-])/C=C/c1ccc2ccccc2c1"
  classification: "T"
- compound: "BrCc1cccc2ccc3cccc(CBr)c3c12"
  classification: "T"
- compound: "O=C(CCCN1CCC2(CC1)CC(=O)N(N1CCCCCC1)C2=O)c1ccc(F)cc1"
  classification: "T"
- compound: "Cc1ccc(S(=O)(=O)NNC(=S)Nc2cccc3ccccc23)cc1"
  classification: "F"
- compound: "Nc1nc(Cl)c(Cl)c(Cl)n1"
  classification: "T"
- compound: "CCCc1cc(C(=O)OCC)cc(CCC)c1O"
  classification: "F"
- compound: "O=C1c2ccccc2C(=O)c2c(NC3CCCCC3)ccc(Nc3ccc(S(=O)(=O)O)cc3)c21"
  classification: "T"

----------
In this section, each of the molecules is paired with its reported growth inhibition.
- experiment description: NCI Yeast Anticancer Drug Screen. Data for the bub3 strain (AID 167)
- details: S. cerevisiae bub3 mutant strain, at 11.0 µM, hits give high values
Compounds without any hit were thinned out: in the full panel of roughly 79,000, 15% have a hit. The source made the active and inactive calls. No stated cut-off is given here; in the data, active means growth inhibition above about 70%; inactive means the rest.

- molecule: "C/C(=N\\NC(=S)N1CCCCC1)c1cccc(C)n1"
  growth inhibition: "99% (active)"
- molecule: "Cc1nc(-[n+]2nc(-c3ccncc3)nn2-c2ccccc2)sc1C"
  growth inhibition: "-5% (inactive)"
- molecule: "CCCCc1cc(O)ccc1O"
  growth inhibition: "-5% (inactive)"
- molecule: "CC(O)C(O)C(O)C(/C=N\\Nc1ccccc1)=N/Nc1ccccc1 (configuration not stated)"
  growth inhibition: "19% (inactive)"
- molecule: "CN(C)c1ccc(C(C#N)=C(C#N)C#N)cc1"
  growth inhibition: "-5% (inactive)"
- molecule: "c1ccc2c(c1)c1ncccc1c1nccnc21"
  growth inhibition: "-1% (inactive)"
- molecule: "Cc1cc(I)ccc1N"
  growth inhibition: "11% (inactive)"

----------
- experiment description: NCI Yeast Anticancer Drug Screen. Data for the CLN2oe strain (AID 163);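 also: 0% = growth of vehicle-only control cultures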
- details: S. cerevisiae CLN2oe strain, at 100.0 µM, hits give high values
Compounds without any hit were thinned out: in the full panel of roughly 79,000, 15% have a hit.
List of growth inhibition values.

- compound: "O=C(c1ccc(Cl)cc1)C1OC12C(=O)Nc1ccccc12 (stereo unspecified)"
  growth inhibition [%]: 98
- compound: "C[Si](C)(C)CNC(=O)OCc1ccccc1"
  growth inhibition [%]: 5
- compound: "CC[n+]1ccc2c(C)c3[nH]c4ccc(O)cc4c3c(C)c2c1"
  growth inhibition [%]: 41
- compound: "c1ccc2c(c1)NC(NC1Nc3ccccc3N1)N2"
  growth inhibition [%]: 8
- compound: "Cc1cc2c(cc1C(=O)CCC(=O)O)CC1(C2)Cc2cc(C)c(C(=O)CCC(=O)O)cc2C1"
  growth inhibition [%]: 41
- compound: "CCOC(=O)c1cnc2c(C(F)(F)F)cccc2c1N=[N+]=[N-]"
  growth inhibition [%]: 73
- compound: "OCC(Cn1cncn1)(c1ccc(F)cc1F)n1cncn1 (stereo unspecified)"
  growth inhibition [%]: 68
- compound: "CCOC(=O)c1cc([N+](=O)[O-])cc([N+](=O)[O-])c1Sc1ncnc2nc[nH]c12"
  growth inhibition [%]: 97
- compound: "Cc1ccc(C2C(Cl)C(=O)N2n2cnc3ccccc3c2=O)cc1 (stereo unspecified)"
  growth inhibition [%]: -20
- compound: "O=C1c2ccccc2C(=O)c2c(NC3CCCCC3)ccc(Nc3ccc(S(=O)(=O)O)cc3)c21"
  growth inhibition [%]: 18
- compound: "CCCCN1C(=O)N(c2ccc(OCC)cc2)C2N(CCCC)C1C(C)(C)C2(C)C (stereo unspecified)"
  growth inhibition [%]: 0
